- Tested on: Neuregulin-1 EGF-like domain
- MEASUREMENT_DESCRIPTION: binders of neuregulin-1 EGF-like domain, primary screen, biochemical, small-molecule microarray, 635 nm fluorescence (AID 1081);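 note: binding of the protein to compounds printed on small-molecule microarray slides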
- CONDITION_SUMMARY: small-molecule microarray binding, higher = more signal
MEASUREMENT_KIND: composite z-score

1) CN1C(=O)C2C=CC(C(O)C#Cc3ccccc3)N(N3CCCCC3)C2C1=O (stereo unspecified)
1.19
2) C=C(CCCC)/C(=C/C[C@H](OC(=O)c1ccncc1)c1ccccc1OCCO)c1cnc2ccccc2c1
1.05
3) CC(C)C(O)C1C=CC2C(=O)N(c3ccccc3)C(=O)C2N1Nc1ccc([N+](=O)[O-])cc1 (stereo unspecified)
0.8
4) CCOC(=O)C[C@H]1[C@H](OC(=O)c2ccc(C(=O)c3ccccc3)cc2)[C@@H](NC(=O)c2ccc3ccccc3c2)c2cc(OCCCO)ccc2N1C(=O)Cc1ccc(OC)cc1
0.107
5) C=CCOC(=O)[C@H]1[C@@H]2C(=O)O[C@@H](c3ccccc3)[C@@H](c3ccccc3)N2[C@@H](c2ccc(OCCOC(=O)[C@H]3C[C@H]4C(=O)N[C@@H](CCCC[N+](C)(C)C)C(=O)N4[C@H]3c3ccc(O)cc3)cc2)[C@]12C(=O)Nc1ccc(I)cc12
0.595
6) COC(=O)[C@@]1(Cc2ccccc2)[C@H]2c3cc(C(=O)N(C)C)n(Cc4ccsc4Br)c3C[C@H]2CN1C(=O)c1ccccc1
1.12
7) C=CC(=C)[C@H]1Oc2ccccc2S(=O)(=O)N2CCC[C@@H]12
-0.595
8) CCC(CC)C(O)C1C=CC2C(=O)NC(=O)C2N1Nc1ccccn1 (stereo unspecified)
1.12
9) O=C1C2C=CC(C(O)CCc3ccccc3)N(Nc3ccccc3F)C2C(=O)N1c1ccccc1 (stereo unspecified)
1.15
10) COc1ccc(CCNC(=O)[C@@H]2c3ccccc3C(=O)N(Cc3ccccc3Cl)[C@H]2c2ccc(CO)cc2)cc1
1.38
11) O=C(OCc1ccccc1)C1=CCC2c3[nH]c4ccccc4c3C(=O)C1N2S(=O)(=O)c1ccccc1[N+](=O)[O-] (stereo unspecified)
1.19
12) COC(=O)c1c(CC[C@@H](CO)NC(=O)NCCn2cc(C3(O)CCCC3)nn2)oc(C(C)=O)c1C(=O)OC
0.685
13) CC(C)(C)OC(=O)CC[C@]1(C(=O)N2CCOCC2)N=C(c2ccc(OCCCO)cc2)O[C@H]1c1ccccc1N=[N+]=[N-]
1.28
14) CN(C)CCCCCCNC(=O)[C@@H]1C[C@@H]2C(=O)N[C@@H](Cc3ccccc3)C(=O)N2[C@@H]1c1ccc(O)cc1
1.42
15) CNS(=O)(=O)c1ccc(C)cc1
0.314
16) COc1cc(C(O)C2C=CC3C(=O)NC(=O)C3N2Nc2ccccn2)cc(OC)c1OC (stereo unspecified)
1.3

###

- System: XIP peptide (Xip251-270) binding
- MEASUREMENT_DESCRIPTION: small-molecule binders of XIP peptide, primary screen, biochemical, small-molecule microarray, fluorescence 635/667 nm, 0.1 µg/mL protein (AID 1182)
- CONDITION_SUMMARY: fluorescent protein binding, 635 nm, higher = more signal, called active from +8 up or from −8 down
Below is a list of entries, each paired with its recorded composite z-score value.
MEASUREMENT_KIND: composite z-score

1) COC(=O)[C@@]1(Cc2ccc(OC)cc2)[C@H]2c3cc(C(=O)N(C)C)n(CCc4ccccn4)c3C[C@H]2CN1C(=O)c1ccccc1
-0.312
2) CC(C)C[C@@H]1NC(=O)[C@@H]2C[C@H](C(=O)NCc3ccc(F)cc3)[C@H](c3cccc(OCCO)c3)N2C1=O
0.832
3) O=C1NC(=O)C2C1C=CC(C(O)c1cccs1)N2Nc1ccc(Cl)cc1Cl (centres undefined)
0.228
4) CN1C(=O)C2C=CC(C(O)c3ccccc3)N(N(c3ccccc3)c3ccccc3)C2C1=O (centres undefined)
-0.274
